Source listed as PubChem BioAssay (NCI).

# Tested on: A498 renal
# assay_details: NCI tumour cell line growth inhibition, 48 h
measured_quantity: TGI

Some solved entries appear below for comparison.
Oc1cc(Cl)cc2cc(Br)cnc12: > 88.7 µM
COC(=O)c1ccc2n1C1CC3CC(CC2C3)C1: > 100 µM
O=C(O)c1c(CC(Cc2ccc3c(c2)CCCC3)C(=O)O)ccc2c1CCCC2 (stereo not given): > 100 µM
Cc1ccc(NC(=O)CC(=O)n2nc(-c3ccccc3)c(N=Nc3ccc(Cl)cc3)c2-c2ccccc2)cc1: > 100 µM

Please state, for each entry, its recorded TGI.
1. CC(C)(C)OC(=O)NCCCCCCCCn1c2c(c3ccccc3c1=O)C(=O)c1ccccc1-2
2. N#CCCC(CC#N)N1CCN(CCO)CC1 (stereo not given)
3. NC(=O)c1csc(C2C=CC(CO)O2)n1 (stereo not given)

A:
["> 47.7 µM", "> 100 µM", "> 100 µM"]

Hey, quick one: what's TGI for each of these?
1. CC1CCCC(C(O)CC2CC(=O)N(c3ccccc3)C(=O)C2)C1=O (stereo not given)
2. Cc1ccc(S(=O)(=O)Oc2ccc3c4c(c(=O)oc3c2)CCCCC4)cc1
3. Cc1ccc(NS(=O)(=O)c2cc(C(C)(C)C)ccc2OCCOCCOCCOc2ccc(C(C)(C)C)cc2S(=O)(=O)Nc2ccc(C)cc2)cc1

A:
> 100 µM
> 100 µM
> 100 µM

###

# System: RXF 393 renal
# assay_details: NCI tumour cell line growth inhibition, 48 h
Provide the reported GI50 of each item.

Completed entries (count: 3):
O=C1c2ccccc2S(=O)(=O)N1CSC(=S)N1CCCC1: > 100 µM
Cc1cc(S(=O)(=O)Nc2nc3ccsc3c(=O)n2Cc2ccco2)c(S)cc1Cl: > 100 µM
CC(C)(C)OC(=O)NCCCCCCCCn1c2c(c3ccccc3c1=O)C(=O)c1ccccc1-2: 8.49 µM

Let us examine a further case.
Q: Look at this molecule and give its reported GI50. O=C(Oc1ccc([N+](=O)[O-])cc1)N1CCN(Cc2cccc(Oc3ccccc3)c2)CC1
A: > 100 µM

###

# Tested on: HOP-62 NSCLC
# assay_details: NCI tumour cell line growth inhibition, 48 h; in the data active = GI50 below about 0.43 µM; inactive = the rest
Your response should consist of one outcome taken from 1 for active, -1 for inactive

Use these answered entries as a reference point.
O=C1C(Cl)=C(Nc2ccc3cn[nH]c3c2)C(=O)c2ccccc21: -1
C=C(CNCCc1ccc(O)cc1)[C@@H]1CC[C@]2(CO)CC[C@]3(C)[C@H](CC[C@@H]4[C@@]5(C)CCC(=O)C(C)(C)[C@@H]5CC[C@]43C)[C@@H]12: -1
C#CCN1CCN(C(=S)N/N=C(\C)c2ccccn2)CC1: 1

Q: Hey, what did the test say about COc1ccc(C2NCCc3c2[nH]c2ccccc32)cc1CN1CCN(c2ccc(F)cc2)CC1 (stereo unspecified) ?
A: -1

Q: # lookup: test call for CCC(=O)OC1CCn2c1nc1c2C(=O)C(C)=C(N2CC2)C1=O (stereo unspecified)
A: 1

Q: Each compound tested received a call. Report the one for CC(C)(C)OC(=O)NCCCCCCCCn1c2c(c3ccccc3c1=O)C(=O)c1ccccc1-2 .
A: -1

Q: For COc1cccc(/C=C/C(=O)c2ccc(Cl)cc2Cl)c1OC , which call appears in the assay record?
A: -1

Q: Recorded call for COc1ccc2nc(NCCCNCCO)c3sc4ccc(F)cc4c(=O)c3c2c1 ?
A: -1

Q: What did this assay record as the result for Cc1ccc(N=C2CSc3nnc(-c4csc5c4CCCC5)n3N2)cc1 ?
A: 1

Q: Kindly provide the recorded test outcome for the following compound: Nc1nc2ccc([C@@H]3Nc4ccc5[nH]ncc5c4[C@H]4[C@H]5CCC(C5)[C@H]43)cc2s1
A: -1
